- study_system: Mitogen-activated protein kinase 14 (Homo sapiens) (UniProt Q16539);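 further: values are mean percent inhibition of p38α kinase from the GSK PKIS published kinase inhibitor set screen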
- Sequence (Q16539 whole entry): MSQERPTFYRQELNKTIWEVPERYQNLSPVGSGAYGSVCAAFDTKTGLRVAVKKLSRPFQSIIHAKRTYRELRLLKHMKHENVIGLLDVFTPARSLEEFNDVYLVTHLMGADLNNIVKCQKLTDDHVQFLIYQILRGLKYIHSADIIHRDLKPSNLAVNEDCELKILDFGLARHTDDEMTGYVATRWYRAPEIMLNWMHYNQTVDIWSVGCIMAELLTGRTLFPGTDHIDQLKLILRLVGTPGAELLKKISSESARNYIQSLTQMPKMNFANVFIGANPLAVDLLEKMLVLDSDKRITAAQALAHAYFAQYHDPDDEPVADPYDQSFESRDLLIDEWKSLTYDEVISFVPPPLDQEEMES
- reported_conditions: at 0.1 µM
parameter: inhibition (%)
# output: bare number, implied unit %

Known inhibition results, listed for orientation:
{"compound": "COc1cc2c(cc1Nc1nc(N3CCc4ccccc43)c3cc[nH]c3n1)N(C(=O)CN(C)C)CC2", "quantitative_readout": 3.41}
{"compound": "CNC(=O)c1cncc(/C=C/c2c(Cl)cccc2Cl)c1", "quantitative_readout": 6.41}
{"compound": "Cc1cccc(-c2n[nH]cc2-c2ccc3ncccc3n2)n1", "quantitative_readout": 2.51}
{"compound": "COc1ccc2cc(-c3c(-c4ccncc4)nc(-c4ccc([S+](C)[O-])cc4)n3C)ccc2c1 (configuration not stated)", "quantitative_readout": 1.72}
{"compound": "CC1=C(C(=O)Nc2ccc3[nH]ncc3c2)C(c2ccc3ccccc3c2)CC(=O)N1 (configuration not stated)", "quantitative_readout": 3.64}
{"compound": "NS(=O)(=O)c1cccc(-c2ccc3c(NC(=O)C4CC4)n[nH]c3c2)c1", "quantitative_readout": 6.37}
{"compound": "COc1cc2ncn(-c3cc(OCc4ccccc4C(F)(F)F)c(C(N)=O)s3)c2cc1OC", "quantitative_readout": 9.41}
{"compound": "CS(=O)(=O)CCNCc1ccc(-c2ccc3ncnc(Nc4ccc(OCc5ccccc5)c(Cl)c4)c3c2)o1", "quantitative_readout": -0.17}

Query block: What measured inhibition goes with COc1ccc(COc2ccc(Cc3cnc(N)nc3N)cc2OC)cc1 ?
Result block: 0.58

Query block: I am curious: what inhibition value has been reported for CCn1c(-c2nonc2N)nc2cncc(C(=O)N3CC[C@H](N)C3)c21 ?
Result block: -0.78

Query block: What measured inhibition goes with COc1ccccc1Nc1ncc(-c2ccccc2)o1 ?
Result block: 10.4

Query block: State the recorded inhibition for this entry: COc1cccc(-n2ncc3c(N/N=C/c4cccc(F)c4)ncnc32)c1
Result block: -0.34

###

inhibition for assorted molecules
- study_system: Protein-tyrosine kinase 6 (Homo sapiens)
- reported_conditions: at 0.1 µM
- Description: GSK_PKIS: BRK mean inhibition at 0.1 uM [Nanosyn]
Unit % implied. Number only.

{"smiles_notation": "c1cnn2ncc(-c3ccnc(Nc4ccc5c(c4)OCCO5)n3)c2c1", "parameter": "inhibition", "quantitative_readout": 6.27}
{"smiles_notation": "CC(C)=Cc1cccc2c1/C(=N/Nc1ccc(S(N)(=O)=O)cc1)C(=O)N2", "parameter": "inhibition", "quantitative_readout": 1.35}

Query block: I'd like to know its inhibition. The molecule in question is CS(=O)(=O)CCNCc1ccc(-c2ccc3ncnc(Nc4ccc(OCc5cccc(F)c5)c(C(F)(F)F)c4)c3c2)o1
Result block: 4.08

Query block: Given the molecule NC(=O)c1cccc(Nc2nccc(Nc3cccc4[nH]ncc34)n2)c1 , what is its reported inhibition?
Result block: 68.6

Query block: Any idea what inhibition was measured for CCN1CCC(CC(=O)Nc2n[nH]c3nc(-c4cccs4)c(Br)cc23)CC1 ?
Result block: -3.07

###

- study_system: Serine/threonine-protein kinase SIK2 (Homo sapiens) (UniProt Q9H0K1)
- Sequence (Q9H0K1 whole entry, looked up): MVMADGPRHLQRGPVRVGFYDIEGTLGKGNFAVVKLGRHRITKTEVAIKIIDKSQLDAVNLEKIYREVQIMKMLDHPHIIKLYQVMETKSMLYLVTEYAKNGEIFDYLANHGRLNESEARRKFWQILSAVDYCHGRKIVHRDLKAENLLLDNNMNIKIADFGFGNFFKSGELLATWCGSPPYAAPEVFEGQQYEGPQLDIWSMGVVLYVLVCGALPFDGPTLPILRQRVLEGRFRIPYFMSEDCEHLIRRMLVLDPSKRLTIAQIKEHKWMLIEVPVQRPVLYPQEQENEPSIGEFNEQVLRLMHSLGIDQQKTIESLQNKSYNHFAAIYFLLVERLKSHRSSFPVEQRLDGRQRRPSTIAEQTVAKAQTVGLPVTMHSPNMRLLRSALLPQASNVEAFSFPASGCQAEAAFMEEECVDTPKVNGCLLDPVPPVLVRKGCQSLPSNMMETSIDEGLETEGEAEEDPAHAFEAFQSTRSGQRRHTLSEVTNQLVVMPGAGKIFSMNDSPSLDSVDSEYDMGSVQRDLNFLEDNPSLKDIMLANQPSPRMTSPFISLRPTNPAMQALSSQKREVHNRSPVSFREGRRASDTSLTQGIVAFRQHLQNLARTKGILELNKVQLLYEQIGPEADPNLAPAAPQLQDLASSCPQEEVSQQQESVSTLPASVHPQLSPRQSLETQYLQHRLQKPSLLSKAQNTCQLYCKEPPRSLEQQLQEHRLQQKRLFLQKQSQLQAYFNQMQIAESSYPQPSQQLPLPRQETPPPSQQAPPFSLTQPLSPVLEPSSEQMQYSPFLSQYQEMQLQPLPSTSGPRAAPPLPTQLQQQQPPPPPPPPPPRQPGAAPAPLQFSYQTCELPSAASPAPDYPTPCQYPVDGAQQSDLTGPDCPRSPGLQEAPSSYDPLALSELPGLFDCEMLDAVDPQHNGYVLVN
- reported_conditions: at 0.1 µM
- Description: GSK_PKIS: SNF1LK2 (QIK) mean inhibition at 0.1 uM [Nanosyn]
Here the recorded inhibition is given for each entry.
Write the value in % as a bare number.

// worked examples, inhibition included
{"molecule": "COC(=O)Nc1nc2cc(Oc3cccc(NC(=O)Nc4cc(C(F)(F)F)ccc4F)c3)ccc2[nH]1", "inhibition [%]": -0.54}
{"molecule": "CCn1c(-c2nonc2N)nc2ccncc21", "inhibition [%]": 5.56}
{"molecule": "COc1cc(C)c(NC(=O)CN(C)C)cc1Nc1nc(Nc2cccc(F)c2C(N)=O)c2cc[nH]c2n1", "inhibition [%]": 0.18}
{"molecule": "NC(=O)c1ccc(-c2nc(-c3ccccn3)c(-c3ccc4c(c3)OCO4)[nH]2)cc1", "inhibition [%]": 7.51}
{"molecule": "COc1ccc(COc2ccc(Cc3cnc(N)nc3N)cc2OC)cc1", "inhibition [%]": -5.52}
{"molecule": "NCc1ccc(-c2nc(-c3ccc(Cl)c(O)c3)c(-c3ccncc3)[nH]2)cc1", "inhibition [%]": -0.81}

Query block: Given the molecule Nc1nc(-c2ccccn2)c(-c2ccc3ncccc3n2)s1 , what is its reported inhibition?
Result block: 4.07

Query block: Given O=C1NC(=O)C(c2cccc(Cl)c2)=C1Nc1ccc(O)c(Cl)c1 , state its recorded inhibition.
Result block: -3.06

Query block: Would you kindly share the measured inhibition for CCn1c(-c2nonc2N)nc2cnc(Oc3cccc(NC(=O)c4ccc(OCCN5CCOCC5)cc4)c3)cc21 ?
Result block: 8.55

Query block: Returns the measured inhibition for the input molecule. Input: CCn1c(-c2nonc2N)nc2c(C#CC(C)(C)O)nc(CN3CCCC3)cc21
Result block: -6.78

Query block: Could you tell me which inhibition is on file for CCn1c(-c2nonc2N)nc2c(N3CCCC3)nccc21 ?
Result block: -7.08
